Documented MIC across a set of compounds
tested on: M. tuberculosis Spec. 210; assay: Tuberculostatic activity, Microplate Alamar Blue Assay (MABA); format: cell-based, Mycobacterium tuberculosis; conditions: Mycobacterium tuberculosis, M. tuberculosis Spec. 210, patient isolate resistant to PAS, INH, ETB, RMP, read-out: MIC
I only need the number, in µg/mL, no unit after it.

Before answering, review these 3 worked examples.
NNC(=O)c1ccncc1 [Isoniazid (INH), Isoniazid, reference compound] : 16
CC[C@@H](CO)NCCN[C@@H](CC)CO [Ethambutol (EMB), Ethambutol, reference compound] : 32
[H]/N=C(/N)N[C@H]1[C@H](O)[C@@H](O)[C@H](O[C@@H]2O[C@@H](C)[C@](O)(C=O)[C@H]2O[C@@H]2O[C@@H](CO)[C@H](O)[C@@H](O)[C@@H]2NC)[C@@H](N/C(N)=N\[H])[C@@H]1O [Streptomycin (SM), Streptomycin, reference compound] : 16

// next item, MIC requested
Annotate the compound CO[C@H]1/C=C/O[C@@]2(C)Oc3c(C)c(O)c4c(O)c(c(/C=N/N5CCN(C)CC5)c(O)c4c3C2=O)NC(=O)/C(C)=C\C=C\[C@H](C)[C@H](O)[C@@H](C)[C@@H](O)[C@@H](C)[C@H](OC(C)=O)[C@@H]1C [Rifampicin (RMP), Rifampicin, reference compound] with its measured MIC. 32
